src = patent US20210087206A1

Test system: KM12 (TPM3-TRKA)
PROTOCOL TEXT: Cell proliferation assay (CellTiter-Glo)
Assay type: cell-based
DETAILS: Homo sapiens, anti-cell proliferation, 72 hours
Checkbox rule: IC50 lower than 40 nM = 1; IC50 not lower than 40 nM = 0.

Previously resolved entries follow.
>>> category_label("C[C@@H]1COc2cn3ncc4c3nc2N(Cc2cc(F)cnc2OC[C@@H](C)NC4=O)C1")
1
>>> category_label("C[C@@H]1COc2cn3ncc4c3nc2N(Cc2cc(F)cnc2O[C@@H](C)CNC4=O)C1")
0
>>> category_label("C[C@@H]1COc2ncc(F)cc2CN2c3nc4c(cnn4cc3OC[C@H]2CC#N)C(=O)N1")
1
>>> category_label("C=C1COc2cn3ncc4c3nc2N1Cc1cc(F)cnc1OC[C@@H](C)NC4=O")
1
>>> category_label("C[C@H]1CNC(=O)c2cnn3cc4c(nc23)N(Cc2cc(F)cnc2O1)C[C@@H](F)CO4")
0

In: Criterion: IC50 strictly below 40 nM. Is it met by `C[C@@H]1COc2cn3ncc4c3nc2N1Cc1cc(F)cnc1OCC[C@H](C)NC4=O` ?
Out: 1

In: Is IC50 of `C[C@@H]1COc2cn3ncc4c3nc2N1Cc1cc(F)cnc1O[C@@H](C)CCNC4=O` strictly below 40 nM?
Out: 1

In: Say whether its IC50 is strictly beneath 40 nM. Entry: `C[C@H]1CNC(=O)c2cnn3cc4c(nc23)N(Cc2cc(F)cnc2O1)CC(F)(F)CO4`
Out: 0
